Hello, the source for this data is patent US11771671B2, in case you need it.

- experiment.notes: plasma pharmacokinetics
- Type: in vivo
- measurement.context: plasma; read-out: plasma elimination half-life
recorded.endpoint: half-life

INPUT: Given `N[C@H]1C[C@@H](C(=O)O)CC1=C(F)F` , state its recorded half-life.
OUTPUT: 240 to 360 min
